Data provenance is PubChem BioAssay AID330.

- Test system: P388 leukemia ip, CD2F1 mice, survival T/C
- methodSummary: NCI In Vivo Anticancer Drug Screen. Data for tumor model P388 Leukemia (intraperitoneal) in CD2F1 (CDF1) mice
- experimentalSetup: endpoint: median survival time; dose: 12.5 mg/kg/injection; schedule: Q01DX009 (ip); vehicle: other
Inconclusive results and toxic doses are left out. Rule for the calls: active = survival T/C of 150% or more; inactive = T/C below 125% in these data.
Please reply with one of these outcomes: active, inactive

compound: CCOC(=O)Nc1cc(Cl)c2nnn(C(=O)OCC)c2n1
classification: inactive

compound: COc1cc2ccc(/C=C\[N+](=O)[O-])cc2cc1OC
classification: inactive

compound: CC(=O)OC12CCCCC1C1(CCCCC1)N=[N+]2[O-] (stereo unspecified)
classification: inactive

compound: COCC(=O)C1(O)Cc2c(O)c3c(c(O)c2C(O)C1)C(=O)c1c(OC)cccc1C3=O (stereo unspecified)
classification: inactive

compound: CCNCCNc1ccc(NCCNCC)c2c1C(=O)c1ccccc1C2=O
classification: active

State the result this test recorded for COc1cc(CC2c3cc(OC)c(OC)cc3CCN2C)c(NC(=O)c2ccc(C(=O)Nc3cc(OC)c(OC)cc3CC3c4cc(OC)c(OC)cc4CCN3C)cc2)cc1OC (stereo unspecified) .
inactive

----------
Consider the following molecules; for each one, report its T/C.
- System: P388 leukemia ip, CD2F1 mice, survival T/C
- methodSummary: NCI In Vivo Anticancer Drug Screen. Data for tumor model P388 Leukemia (intraperitoneal) in CD2F1 (CDF1) mice
- experimentalSetup: endpoint: median survival time; dose: 25.0 mg/kg/injection; schedule: Q04DX003 (ip); vehicle: saline with Tween-80; higher = longer survival
Toxic doses and inconclusive results are not listed.

A selection of reference data follows.
molecule: Cc1ccc(N=NN(C)C)cc1
T/C: 100 % of control
--
molecule: CCCCCCC(=O)CCCCCCCCCCCCC(=O)OC
T/C: 100 % of control
--
molecule: Clc1nc2nc[nH]c2nc1Cl
T/C: 91 % of control

Lab note: each molecule below needs its T/C filled in.
1. OC(CCl)Cc1ccccc1 (centres undefined)
2. O=c1[nH]n(-c2ccccc2)c2ccccc12
3. O=NN(CCF)C(=O)NC1CCCCC1
4. O=C1OC2C(I)C3CC1C2C3 (centres undefined)
5. COc1ccc2c(c1)CCC1(C)C2=CC(=O)/C1=C\[O-].COc1ccc2c(c1)CCC1(C)C2=CC(=O)/C1=C\[O-].[Cu+2] (centres undefined)
6. NCC(=O)c1ccc(O)c(O)c1

104 % of control
90 % of control
225 % of control
104 % of control
90 % of control
108 % of control

----------
- Tested on: P388 leukemia ip, CD2F1 mice, survival T/C
- methodSummary: NCI In Vivo Anticancer Drug Screen. Data for tumor model P388 Leukemia (intraperitoneal) in CD2F1 (CDF1) mice
- experimentalSetup: endpoint: median survival time; dose: 25.0 mg/kg/injection; schedule: Q01DX009 (ip); vehicle: saline with Tween-80; higher = longer survival
Inconclusive results and toxic doses are left out.
Consider the following molecules; for each one, report its T/C.

molecule: COc1ccc2[nH]cc(CCN(C)C)c2c1
subjectOfTest: P388 leukemia ip, CD2F1 mice, survival T/C
result: 104 % of control

molecule: CCC(=O)Nc1ccc(C(=O)C(C)O[N+](=O)[O-])cc1 (centres undefined)
subjectOfTest: P388 leukemia ip, CD2F1 mice, survival T/C
result: 98 % of control

molecule: CCOCC(COCC)(COCC)COCC
subjectOfTest: P388 leukemia ip, CD2F1 mice, survival T/C
result: 110 % of control

molecule: [N-]=[N+]=NC1=CC(=O)C(c2ccccc2)=CC1=O
subjectOfTest: P388 leukemia ip, CD2F1 mice, survival T/C
result: 100 % of control

molecule: CC(C)(CCC(=S)N1CCOCC1)c1ccccc1
subjectOfTest: P388 leukemia ip, CD2F1 mice, survival T/C
result: 111 % of control

molecule: O=C1CCS(=O)(=O)CC1
subjectOfTest: P388 leukemia ip, CD2F1 mice, survival T/C
result: 108 % of control

molecule: CCOC(CBr)(OCC)OCC
subjectOfTest: P388 leukemia ip, CD2F1 mice, survival T/C
result: 94 % of control

molecule: Cc1ccc(SSC(=S)Nc2ccccc2)cc1
subjectOfTest: P388 leukemia ip, CD2F1 mice, survival T/C
result: 90 % of control

Let's switch to this molecule now.
Fill blank: measured T/C of the molecule c1ccc(-c2ccccc2NC2=NCCO2)cc1 is ____.
104 % of control
